# testConditions: 348.15 K; 101.33 kPa; Liquid; Concentric cylinders viscometry
± gives the expanded uncertainty stated by the source.
property: viscosity

• CC(C)Cn1cc[n+](C)c1.O=S(=O)([N-]S(=O)(=O)C(F)(F)F)C(F)(F)F = 13.14 ± 0.16 mPa·s
• CC(C)C[N+]1(C)CCCC1.O=S(=O)([N-]S(=O)(=O)C(F)(F)F)C(F)(F)F = 13.36 ± 0.16 mPa·s
• CC(C)C[N+]1(C)CCCCC1.O=S(=O)([N-]S(=O)(=O)C(F)(F)F)C(F)(F)F = 21.18 ± 0.26 mPa·s
• Cc1ccc[n+](CC(C)C)c1.O=S(=O)([N-]S(=O)(=O)C(F)(F)F)C(F)(F)F = 14.35 ± 0.17 mPa·s
• CCCC[N+]1(C)CCCCC1.O=S(=O)([N-]S(=O)(=O)C(F)(F)F)C(F)(F)F = 22.65 ± 0.2 mPa·s
• CCCC[n+]1cccc(C)c1.O=S(=O)([N-]S(=O)(=O)C(F)(F)F)C(F)(F)F = 12.15 ± 0.1 mPa·s
